These measurements were taken from patent US20160060347A1.

measured_on: T1, N-Terminal Peptide aa1-17 (Transferrin- or BSA-Coupled) (human, also: coupled to carrier protein (BSA or transferrin), site not given here)
T1 peptide: MEDFNMESDSFEDFWKGC
assay_procedure: initial screening, Fab; carrier of the peptide not stated
Where no end group is shown, it is not given here.
Each entry below carries its recorded signal over background.

For record CX2-Mab #6 (Fab format) (Fab, V domains shown) VH: EVQLLESGGGLVQPGGSLRLSCAASGFTFSSYTMSWVRQAPGKGLEWVSAIHSSGSSTYYADSVKGRFTISRDNSKNTLYLQMNSLRAEDTAVYYCARVPAYYGFDHWGQGTLVTVSS VL: DIELTQPPSVSVSPGQTASITCSGDSLGAFYVHWYQQKPGQAPVLVIYRTNNRPSGIPERFSGSNSGNTATLTISGTQAEDEADYYCASYASRNRVFGGGTKLTVLG the listed signal over background is ≥ 5 fold

For record CX2-Mab #4 (Fab format) (Fab, V domains shown) VH: EVQLLESGGGLVQPGGSLRLSCAASGFTFSSNGMSWVRQAPGKGLEWVSAISSSGSKTYYADSVKGRFTISRDNSKNTLYLQMNSLRAEDTAVYYCARGYGFDVWGQGTLVTVSS VL: DIVLTQPPSVSGAPGQRVTISCSGSSSNIGVNIVNWYQQLPGTAPKLLIYSTSNRPSGVPDRFSGSKSGTSASLAITGLQAEDEADYYCATRDGISKSVVFGGGTKLTVLG the listed signal over background is ≥ 5 fold

For record CX2-Mab #1 (Fab format) (Fab, V domains shown) VH: QVQLVQSGAEVKKPGSSVKVSCKASGGTFSSYAISWVRQAPGQGLEWMGGIIPIVGEAKYAQKFQGRVTITADESTSTAYMELSSLRSEDTAVYYCARDSSGYDGYYAFAYWGQGTQVTVSS VL: DIVLTQPPSVSGAPGQRGTISCSGSSSNIGSSSVNWYQQLPGTAPKLLIYRNNQRPSGVPDRFSGSKSGTSASLAITGLQAEDEADYYCGATDFSANQVVFGGGTKLTVLG the listed signal over background is ≥ 5 fold
